- SYSTEM NAME: Leucine aminopeptidase (Plasmodium falciparum (isolate 3D7)) (UniProt Q8IL11)
- Sequence (Q8IL11 whole entry, looked up): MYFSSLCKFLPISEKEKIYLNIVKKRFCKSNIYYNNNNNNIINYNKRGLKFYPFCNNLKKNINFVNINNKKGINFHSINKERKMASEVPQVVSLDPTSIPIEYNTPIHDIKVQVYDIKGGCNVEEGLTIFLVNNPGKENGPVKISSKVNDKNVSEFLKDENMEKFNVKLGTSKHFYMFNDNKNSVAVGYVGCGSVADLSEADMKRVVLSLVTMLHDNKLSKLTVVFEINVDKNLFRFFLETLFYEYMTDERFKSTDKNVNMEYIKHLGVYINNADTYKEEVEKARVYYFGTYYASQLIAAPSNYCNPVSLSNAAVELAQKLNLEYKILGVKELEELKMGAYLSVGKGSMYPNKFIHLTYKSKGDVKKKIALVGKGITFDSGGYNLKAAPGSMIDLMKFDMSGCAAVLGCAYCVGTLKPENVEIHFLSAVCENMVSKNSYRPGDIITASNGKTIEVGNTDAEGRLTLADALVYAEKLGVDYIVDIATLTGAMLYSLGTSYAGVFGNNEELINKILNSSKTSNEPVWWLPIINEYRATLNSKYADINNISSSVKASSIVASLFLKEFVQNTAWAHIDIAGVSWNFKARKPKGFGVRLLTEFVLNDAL
- TEST NAME: P. falciparum M17LAP inhibitors, primary screen, biochemical, fluorogenic H-Leu-NHMec substrate, 1536-well (AID 1619);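 note: plate controls were full reaction with DMSO carrier for no effect and no enzyme background for full effect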
- TEST PARAMETERS: recombinant M17LAP, H-Leu-NHMec fluorogenic kinetic assay; at 30 µM; active compounds read high
About 830 (0.38%) of roughly 220,000 compounds were called active. Not all results are given here. Results with a measured potency or affinity are listed apart.
READOUT KIND: inhibition (%)
Respond numerically; units are % and should not be typed.

Report inhibition for Cc1ccc(C(=O)Nc2c(C)cc(-c3ccc(Cl)cc3)oc2=O)cc1 please. 2.9

Which inhibition value is on record for CCCCC1=CC2=CC(=O)C(C)(OC(=O)CC)C(=O)C2=CN1CCc1c[nH]c2ccccc12 (stereo not given) ? -3.57

Item CCCCCOP(=O)(c1ccccc1)c1ccccc1 has what recorded inhibition? -7.38

Requested read-out: inhibition. Entry: C=CCN1C(=O)CC(C(=O)NC)SC1=Nc1ccc(C(=O)OCC)cc1 (stereo not given) 4.4

Bench note: what inhibition did Cc1ccc(C2CC(C(F)(F)F)n3nc(C(=O)Nc4c(C)n(C)n(-c5ccccc5)c4=O)cc3N2)cc1 (stereo not given) show? 2.06

---

Assignment: determine reported inhibition for the given compounds.
- SYSTEM NAME: Leucine aminopeptidase (Plasmodium falciparum (isolate 3D7)) (UniProt Q8IL11)
- TEST NAME: P. falciparum M17LAP inhibitors, primary screen, biochemical, fluorogenic H-Leu-NHMec substrate, 1536-well (AID 1619);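 note: plate controls were full reaction with DMSO carrier for no effect and no enzyme background for full effect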
- TEST PARAMETERS: recombinant M17LAP, H-Leu-NHMec fluorogenic kinetic assay; at 30 µM; active compounds read high
About 830 (0.38%) of roughly 220,000 compounds were called active. Not all results are given here. Entries with a potency or affinity are not part of this list.
Use % as the unit, but write only the number.

Report inhibition for Cn1c(CC(=O)c2ccc(Br)cc2)[n+](C)c2ccccc21 tested on Leucine aminopeptidase (Plasmodium falciparum (isolate 3D7)) (UniProt Q8IL11). 2.42

Any idea what inhibition came out for O=C(O)C1CC=CCC1C(=O)NNc1ccccc1 (stereo unspecified) on Leucine aminopeptidase (Plasmodium falciparum (isolate 3D7)) (UniProt Q8IL11)? 1.11

Give recorded inhibition with Leucine aminopeptidase (Plasmodium falciparum (isolate 3D7)) (UniProt Q8IL11) for the following compound: COc1ccc(-c2nc(C)c(C(C)=O)n2O)cc1[N+](=O)[O-] 39.5

// map O=C(O)c1ccc(NC(=O)C2CC=CCC2C(=O)O)cc1 (stereo unspecified) to recorded inhibition (system: Leucine aminopeptidase (Plasmodium falciparum (isolate 3D7)) (UniProt Q8IL11)) 2.25

What value of inhibition on Leucine aminopeptidase (Plasmodium falciparum (isolate 3D7)) (UniProt Q8IL11) does CC1=C(C)CC(C(=O)NNC(=O)c2cccc(Cl)c2)C(C(=O)O)C1 (stereo unspecified) have? 27.5

For the record CC(C)(C)c1ccc(C(=O)Nc2ccc(O)c3c(=O)cc(-c4cccc(Cl)c4)oc23)cc1 , what value of inhibition is listed for Leucine aminopeptidase (Plasmodium falciparum (isolate 3D7)) (UniProt Q8IL11)? 0.21

Form: Entry = S=C(Nc1ccccc1)N(CCN1CCOCC1)Cc1cccc(Cl)c1 | System = Leucine aminopeptidase (Plasmodium falciparum (isolate 3D7)) (UniProt Q8IL11) | inhibition = ____ 3.82

Could you share what inhibition was measured for O=C(O)c1ccc(NC(=O)C2(c3ccccc3)CCCC2)cc1 , tested on Leucine aminopeptidase (Plasmodium falciparum (isolate 3D7)) (UniProt Q8IL11)? 3.99

Fill in the recorded inhibition for this compound, with Leucine aminopeptidase (Plasmodium falciparum (isolate 3D7)) (UniProt Q8IL11) as test system: O=C(O)C1CC=CCC1C(=O)Nc1cccnc1 (stereo unspecified) 20.5

Requested read-out inhibition, target or system Leucine aminopeptidase (Plasmodium falciparum (isolate 3D7)) (UniProt Q8IL11), entry CC(C)c1nc(SCC(=O)Nc2c[nH]c(=O)[nH]c2=O)c2cnn(-c3ccccc3)c2n1 -6

Return inhibition measured with Leucine aminopeptidase (Plasmodium falciparum (isolate 3D7)) (UniProt Q8IL11) given this compound: Fc1ccc(CNc2nc3ccccc3n3cnnc23)cc1 -2.38
